Counter-ions that a name gives are not always drawn.
Parameter 'readout' = pKi; parameter 'system' = 5-HT2A receptor (Homo sapiens).
By convention, pKi is the negative base-10 log of a molar concentration.

// solved cases for pKi follow
{"columns": ["molecule", "attribute.measured", "measurement"],
 "data": [
  ["CC(C)c1nc2c(c(-c3ccccc3F)n1)CNCC2 [Example 26]", "pKi", 6.52],
  ["CC(C)Cc1nc2c(c(-c3ccc(C#N)cc3)n1)CNCC2 [Example 40]", "pKi", 6.30],
  ["Cc1ccc(-c2cc(CCN)nc(Cc3ccccc3)n2)cc1 [Example 115]", "pKi", 6.00],
  ["CC(C)c1nc2c(c(-c3ccc(F)cc3)n1)CCNC2 [Example 80, hydrochloride]", "pKi", 7.96]
]}

Alright, here's another molecule for you.
Prompt line: Provide value of pKi for this record tested with 5-HT2A receptor (Homo sapiens): Fc1ccc(-c2nc(Cc3ccccc3)nc3c2CCCNC3)cc1 [Example 64, hydrochloride]
Response line: 8.00
